Test: Population PK: parent MT steady state plasma Cmax,ss in Phase III patients
Assay type: in vivo, human
Settings: human, plasma, oral, 8 mg/day, parent MT; 8 mg/day – Group 3; read-out: Cmax,ss Mean (SD)
property.label: Cmax (ng/mL)
Value expressed in ng/mL; do not type the unit.

Identify measured Cmax corresponding to CN(C)c1ccc2c(c1)Sc1cc(N(C)C)ccc1N2
0.449

* * *

Test: Population PK: parent MT steady state plasma Cmax,ss in Phase III patients
Type: in vivo, human
Settings: human, plasma, oral, 200 mg/day, parent MT; 200 mg/day; read-out: Cmax,ss Mean (SD)
property.label: Cmax (ng/mL)
Value expressed in ng/mL; do not type the unit.

Identify measured Cmax corresponding to CN(C)c1ccc2c(c1)Sc1cc(N(C)C)ccc1N2
10.1
